Taken from the supplement of paper PMC13380429.

- Test system: Vero E6
- Assay text: cell viability relative to DMSO; higher = less toxic
- Measurement setup: 72 h; 1000 nM
Assay metric: cell viability (%)
Field format: number, assumed %, no unit text.

The following molecules have reported results that may help.
Consider O=C1CC(=O)c2c(Cl)c(Cl)c(Cl)c(Cl)c21 . Its measured cell viability is 101

Consider CCCc1c2oc(C(=O)O)cc(=O)c2cc2c(=O)cc(C(=O)O)n(CC)c12 . Its measured cell viability is 95.7

Consider CC(C)C(=O)OC[C@H]1O[C@@H](n2ccc(N)nc2=O)[C@](C)(F)[C@@H]1OC(=O)C(C)C . Its measured cell viability is 93.6

Consider OCCN1CCN(CC/C=C2/c3ccccc3Sc3ccc(Cl)cc32)CC1 . Its measured cell viability is 93.7

Consider CC(=O)NCCCOc1ccc(C(=O)N2CCC(N3C(=O)CCc4ccccc43)CC2)cc1 . Its measured cell viability is 104

Consider CC1(C)CC[C@]2(C(=O)O)CC[C@]3(C)C(=CC[C@@H]4[C@@]5(C)CC[C@H](O)C(C)(C)[C@@H]5CC[C@]43C)[C@@H]2C1 . Its measured cell viability is 95.3

Consider Cc1cc(C(=CNc2ccc(Cl)cc2)C(=O)Nc2ccc(Cl)cc2)on1 . Its measured cell viability is 96.6

Consider CC(Cc1cccc(C(F)(F)F)c1)NCCOC(=O)c1ccccc1 (configuration not stated) . Its measured cell viability is 100

Consider CCOC(=O)c1c(C)n(C)c2ccc(O)cc12 [mecarbinate] . Its measured cell viability is 92.9

Consider Nc1nc(Cl)nc2c1ncn2[C@@H]1O[C@H](CO)[C@@H](O)[C@@H]1F . Its measured cell viability is 87.8

Further cases:
Consider Cc1cc(C)cc(C(=O)N(C)[C@H](Cc2ccc(-c3ccccc3)cc2)C(=O)N[C@@H](Cc2c[nH]c3ccccc23)C(=O)O)c1 . Its measured cell viability is 95.5

Consider NCCc1c[nH]c2ccc(O)cc12 . Its measured cell viability is 98.9
